System: HOP-92
ASSAY_DETAILS: NCI tumour cell line growth inhibition, 48 h
Activity calls are given as the source filed them. Rule as the data show it: active = GI50 up to about 1.1 µM and inactive = higher.
Your reply should match one of these outcome classes. t = active, f = inactive

Worked set:
| MOLECULE | CLASSIFICATION |
| --- | --- |
| S=C(NCCc1ccccn1)c1nc[nH]c1C(=S)NCCc1ccccn1 | f |
| Sc1cnnc2ccc(Br)cc12 | f |
| O=C1CSC2=NC3=C(CSC/C3=C\c3ccc(Cl)cc3)C(c3ccc(Cl)cc3)N12 (centres undefined) | f |
| N=C1OC(CN2CCN(c3ccccc3)CC2)CN1C(=O)Nc1ccccc1 (centres undefined) | f |

[Q] Field: outcome | Entry: C/C=C(/COC(C)=O)C(=O)OC1C=C(C=O)C(C)(C)C=C1C (centres undefined)
[A] f

[Q] Would you mind telling me which call this test gave C=CCC1(C(=O)OC(C)(C)C)C(OC)=C(C(=O)OC(C)(C)C)C2C1C(C(=O)OC(C)(C)C)=C(OC)C2(CC=C)C(=O)OC(C)(C)C (centres undefined) ?
[A] f

[Q] GET /call?item= O=C(CNc1ccc2c(=S)c3ccccc3[nH]c2c1)Nc1ccccc1-c1ccccc1NC(=O)CNc1ccc2c(=S)c3ccccc3[nH]c2c1 returns the recorded outcome of this test.
[A] f

[Q] I'd appreciate the recorded outcome for CCN(CC)CCCNc1nc(=O)[nH]c(C)c1C(=O)Nc1ccc2c(c1)c1ccccc1n2CC from this test.
[A] f

[Q] Hey, what did the test say about COC(=O)/C=C1\C(=O)N(C(C)=O)c2ccccc21 ?
[A] f

[Q] What was the test verdict on CNC(=O)CNC(=O)C(Cc1ccc(NC(=O)CCCCC(C)=O)cc1)NC(=O)C(CCC(=O)OCc1ccccc1)NC(=O)OC(C)(C)C (centres undefined) ?
[A] f

[Q] Hi, sorry to bother you, what did the test record for COC(=O)C(Cc1ccc(N(C)C)cc1)(NC(=O)c1ccccc1)P(=O)(OC)OC (centres undefined) ?
[A] f

[Q] For this molecule, state the assay outcome: c1ccc(OCc2nnc(CCCCCCCCc3nnc(COc4ccccc4)o3)o2)cc1
[A] f

[Q] Could you please tell me the result logged for CC(C)C/C=C/C1=NN(c2cccc(S(=O)(=O)O)c2)C2(C1)SCC(=O)N2c1nc2ccccc2s1 (centres undefined) in this assay?
[A] f

[Q] Tell me the assay call for COc1ccc2nc(NC(=O)C(=O)CC(=O)c3ccc(Cl)cc3)sc2c1 please.
[A] f

[Q] For COc1cc(/C=N/NC(=O)c2c(Cl)c(Cl)c(Cl)c(Cl)c2-c2nc3ccccc3[nH]2)ccc1O , which call appears in the assay record?
[A] f

[Q] Name the outcome recorded for O=C1c2ccccc2N2Oc3ccccc3C12c1ccccc1 (centres undefined) in the assay.
[A] f

[Q] Hi, sorry to bother you, what did the test record for CC(C)C(C/C=C1\CC(CO)(COC(=O)CC(C(C)C)C(C)C)OC1=O)C(C)C (centres undefined) ?
[A] t

[Q] Which result was noted for this molecule in the test: CCCCCCCCCCC(O)C1CCC(C(O)CCC(O)C2CCC(CCCCCCC[C@H](O)CC3=C[C@@H](C)OC3=O)O2)O1 (some centres undefined)
[A] f

[Q] Outcome? CC(=O)NNc1nc(C)c(C(=O)NNC(=O)C(=O)Nc2c([N+](=O)[O-])ccc(C)c2C)s1
[A] f

[Q] Check the results log: what was the call for C=C(C)CNCC(=C)C.Oc1c(Cl)c(Cl)c(Cl)c(Cl)c1Cl ?
[A] f
